The measured values listed here are drawn from ChEMBL document CHEMBL4052667.

Tested on: HCC827
Experimental Protocol: Antiproliferative activity against human HCC827 cells after 72 hrs by MTT assay
Type: functional, cell-based
Assay Conditions: HCC827, 72 h
pIC50: −log10 of the molar value.
Listed below: pIC50 values for each entry.
Quantity Name: pIC50

>  <Molecule>
O=C(/C=C/c1ccc(CCNC(=O)c2cc(Cc3n[nH]c(=O)c4ccccc34)ccc2F)cc1)NO

>  <Operator>
=

>  <Experimental Value>
5.75

$$$$
>  <Molecule>
O=C(/C=C/c1ccc(CN2CCN(C(=O)c3cc(Cc4n[nH]c(=O)c5ccccc45)ccc3F)CC2)cc1)NO

>  <Operator>
=

>  <Experimental Value>
5.53

$$$$
>  <Molecule>
O=C(Cc1ccc(CN2CCN(C(=O)c3cc(Cc4n[nH]c(=O)c5ccccc45)ccc3F)CC2)cc1)NO

>  <Operator>
=

>  <Experimental Value>
4.49

$$$$
>  <Molecule>
O=C(c1cc(Cc2n[nH]c(=O)c3ccccc23)ccc1F)N1CCN(C(=O)C2CC2)CC1 [OLAPARIB]

>  <Operator>
<

>  <Experimental Value>
4.30

$$$$
>  <Molecule>
O=C(NO)c1ccc(CN2CCN(C(=O)c3cc(Cc4n[nH]c(=O)c5ccccc45)ccc3F)CC2)cc1

>  <Operator>
=

>  <Experimental Value>
4.62

$$$$
